- Study Target: T1, R&D hRGMc-His (human, UniProt Q6ZVN8 36-400)
- T1 construct: Bought (R&D); not shown: His tag
- T1 sequence: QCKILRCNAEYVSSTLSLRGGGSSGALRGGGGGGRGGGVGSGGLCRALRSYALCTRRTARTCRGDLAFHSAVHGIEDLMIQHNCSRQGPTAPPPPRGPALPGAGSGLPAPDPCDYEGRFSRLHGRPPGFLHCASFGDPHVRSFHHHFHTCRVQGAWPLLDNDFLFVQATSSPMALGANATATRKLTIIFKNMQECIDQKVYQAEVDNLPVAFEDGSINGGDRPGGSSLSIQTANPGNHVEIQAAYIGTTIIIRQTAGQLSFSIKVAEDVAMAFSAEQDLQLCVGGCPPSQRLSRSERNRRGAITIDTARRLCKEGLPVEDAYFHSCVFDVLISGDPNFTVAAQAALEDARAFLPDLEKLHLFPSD
- Test Name: Affinity KD (nM); (BIAcore per Example 4)
- Experimental: The potency data correlates with the affinity data (see Table 5). The affinity of h5F9.23 affinity matured Abs towards human RGMa, rat RGMa, and human RGMc were determined by BIAcore analysis (Table 5). […] Association and dissociation rates were monitored for 5 and 10 min respectively. […] The equilibrium dissociation constants (KD) were calculated from kinetic rate constants (off rate kd and on rate ka): KD=kd/ka.
pKd: −log10 of the molar value.
Property Name: pKd

Binder	Assay Result
RGMA-h5F9pJP297/pJP299 hIgG1/K mut (antibody, V domains shown, Tested as IgG; also called h5F9.AM9; H5F9AM.9) VH: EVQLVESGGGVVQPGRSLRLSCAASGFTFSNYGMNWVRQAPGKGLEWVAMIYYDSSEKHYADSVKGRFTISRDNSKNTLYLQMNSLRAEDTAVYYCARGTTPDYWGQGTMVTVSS VL: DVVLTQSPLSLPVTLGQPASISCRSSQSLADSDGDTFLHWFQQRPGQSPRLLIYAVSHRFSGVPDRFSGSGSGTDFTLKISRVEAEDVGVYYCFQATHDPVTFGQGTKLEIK	9.16
